test: Visible absorption spectrum (λmax, ε); assay type: physicochemical; settings: in chloroform, at λ max; in M-1 cm-1 (unit assumed)
PARAMETER MEASURED: ε
Reply: number alone, nothing else.

COc1ccccc1Nc1c(F)c2c(c(F)c1Nc1ccccc1OC)C(=O)c1c(O)ccc(O)c1C2=O
15600
O=C1c2c(O)ccc(O)c2C(=O)c2c(F)c(Nc3c(Cl)cccc3Cl)c(Nc3c(Cl)cccc3Cl)c(F)c21
22300
CCCCNc1c(F)c2c(c(F)c1Nc1ccccc1)C(=O)c1c(O)ccc(O)c1C2=O
15300
O=C1c2c(O)ccc(O)c2C(=O)c2c(F)c(Nc3ccccc3)c(Nc3ccccc3)c(F)c21
19800
O=C1c2c(O)ccc(O)c2C(=O)c2c(F)c(NC3CCCCC3)c(F)c(F)c21
24500
O=C(O)c1c(F)c(F)c(Sc2c(F)c3c(c(F)c2Sc2c(F)c(F)c(C(=O)O)c(F)c2F)C(=O)c2c(O)ccc(O)c2C3=O)c(F)c1F
12600

Please report the recorded ε for `O=C1c2c(O)ccc(O)c2C(=O)c2c(F)c(Nc3ccc([N+](=O)[O-])cc3)c(F)c(F)c21` .
16300

And for `CCCCCCCCOC(=O)c1cccc(Nc2c(F)c(F)c3c(c2F)C(=O)c2c(O)ccc(O)c2C3=O)c1` ?
17600

---

assay: Visible absorption spectrum (λmax, ε); type: physicochemical; settings: in chloroform, at λ max; in M-1 cm-1 (unit assumed)
Recorded ε, one value per entry.
Reply: number alone, nothing else.

// known answers, use as guide
CCCCCCCCOc1c(F)c2c(c(F)c1Nc1ccc(C#N)cc1)C(=O)c1c(O)ccc(O)c1C2=O
15400
CCCCCCCCOc1c(F)c2c(c(F)c1Nc1ccc([N+](=O)[O-])cc1)C(=O)c1c(O)ccc(O)c1C2=O
13200
O=C1c2c(O)ccc(O)c2C(=O)c2c(Sc3ccccc3)c(Sc3ccccc3)c(Sc3ccccc3)c(Sc3ccccc3)c21
12600

Next compound, ε to be filled in.
Please report the recorded ε for `CCCCNc1c(F)c2c(c(F)c1Nc1cccc(C(=O)OCC)c1)C(=O)c1c(O)ccc(O)c1C2=O` .
21000

---

Test: Stability in storage of thermal transfer recorded images
Settings: 50° C., 50 hours
Experimental: The recorded images obtained as described above were left standing in an atmosphere kept at 50° C. for 50 hours and, after the standing, were examined to determine the presence or absence of change caused on the images owing to the standing. Ink compositions were prepared, transfer sheets produced, and transfer recording carried out by following the procedure of Example 89 while using the dye shown in Table 11 instead. […]
PARAMETER MEASURED: Stability in storage

// known answers, use as guide
CCCCOc1c(Nc2c(C)cccc2C(=O)OCC)c(Nc2c(C)cccc2C(=O)OCC)c(F)c2c1C(=O)c1c(O)ccc(O)c1C2=O
Good
O=C1c2c(O)ccc(O)c2C(=O)c2c(F)c(Nc3c(Cl)cccc3Cl)c(F)c(F)c21
Good
CCc1ccc(Cl)c(CC)c1Nc1c(F)c2c(c(F)c1Nc1c(CC)ccc(Cl)c1CC)C(=O)c1c(O)ccc(O)c1C2=O
Good
CC(C)c1cccc(C(C)C)c1Nc1c(F)c2c(c(F)c1Nc1c(C(C)C)cccc1C(C)C)C(=O)c1c(O)ccc(O)c1C2=O
Good
CCCCCCCCOc1c(F)c2c(c(F)c1Nc1ccc([N+](=O)[O-])cc1)C(=O)c1c(O)ccc(O)c1C2=O
Good
CCCCCCCCOc1c(F)c2c(c(F)c1Nc1ccc(C(=O)OCC)cc1)C(=O)c1c(O)ccc(O)c1C2=O
Good

Next compound, Stability in storage to be filled in.
Please report the recorded Stability in storage for `CCCCCCCCOc1c(Nc2cccc(C(=O)OCC)c2)c(Nc2cccc(C(=O)OCC)c2)c(F)c2c1C(=O)c1c(O)ccc(O)c1C2=O` .
Good
